Collected viability, T/C values appear next to each entry.
System: 186277-243-T-J2-PDC complex spheroid growth
assay details: Anticancer human tumor 186277-243-T-J2-PDC patient-derived colon adenocarcinoma cell line growth inhibition [AhR]
settings: second compound 0.316 µM; first compound 0.316 µM; hits give low values
reported property: viability, T/C (%)

compound: CC1(C)CCC(CN2CCN(c3ccc(C(=O)NS(=O)(=O)c4ccc(NCC5CCOCC5)c([N+](=O)[O-])c4)c(Oc4cnc5[nH]ccc5c4)c3)CC2)=C(c2ccc(Cl)cc2)C1 + Cc1cncc(-c2nc(NCCc3c[nH]c4ccccc34)c3ncn(C(C)C)c3n2)c1
target under test: 186277-243-T-J2-PDC complex spheroid growth
reported property: viability, T/C
quantitative result: 102

compound: COc1ccc([C@@H](O)c2cc(-c3ncnc4cc(N5CCOCC5)ccc34)c(F)cc2Cl)nn1 + CC(CO)NC(=O)c1cc(-c2ccc(Cl)cc2)nn(-c2cnn(C)c2)c1=O
target under test: 186277-243-T-J2-PDC complex spheroid growth
reported property: viability, T/C
quantitative result: 84.2

compound: COc1cc(Nc2ncc3c(n2)-c2ccc(Cl)cc2C(c2c(F)cccc2OC)=NC3)ccc1C(=O)O + CC(CO)NC(=O)c1cc(-c2ccc(Cl)cc2)nn(-c2cnn(C)c2)c1=O
target under test: 186277-243-T-J2-PDC complex spheroid growth
reported property: viability, T/C
quantitative result: 22.4

====

Test system: 186277-243-T-J2-PDC complex spheroid growth
assay details: Anticancer human tumor 186277-243-T-J2-PDC cell line growth inhibition [AhR];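 note: luminescent signal used as a stand-in for viable cell amount; spheroids exposed to compounds for seven days before the viability read; 100% = DMSO vehicle control wells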
settings: second compound 1 µM; first compound 1 µM; hits give low values
Text: Multicellular complex tumor spheroid response to aryl hydrocarbon receptor antagonists in combination with a variety of drugs and investigational agents in selected tumor cell lines […] Compounds. […] If the clinical Cmax for an agent had not been determined, the highest concentration tested was 10 microM (Table 1). […]
reported property: viability, T/C (%)

molecule: NS(=O)(=O)OCC1CC(n2ccc3c(NC4CCc5ccccc54)ncnc32)CC1O (stereo unspecified) + CC(CO)NC(=O)c1cc(-c2ccc(Cl)cc2)nn(-c2cnn(C)c2)c1=O
quantitative result: 8.96

molecule: CC(C)c1c(-c2ccccc2)nc2c(C#N)c[nH]n2c1=O + Cc1cncc(-c2nc(NCCc3c[nH]c4ccccc34)c3ncn(C(C)C)c3n2)c1
quantitative result: 103

molecule: COc1cc(C2c3cc4c(cc3C(OC3OC5COC(C)OC5C(O)C3O)C3COC(=O)C23)OCO4)cc(OC)c1O (stereo unspecified) + Cc1cncc(-c2nc(NCCc3c[nH]c4ccccc34)c3ncn(C(C)C)c3n2)c1
quantitative result: 59.5

molecule: CC1COCCN1c1cc(C2(S(C)(=N)=O)CC2)nc(-c2ccnc3[nH]ccc23)n1 (stereo unspecified) + Cc1cncc(-c2nc(NCCc3c[nH]c4ccccc34)c3ncn(C(C)C)c3n2)c1
quantitative result: 106

molecule: CC1COCCN1c1cc(-c2ccnn2C)c2ccnc(-c3ccn[nH]3)c2n1 (stereo unspecified) + CC(CO)NC(=O)c1cc(-c2ccc(Cl)cc2)nn(-c2cnn(C)c2)c1=O
quantitative result: 2.51

molecule: COc1cc(C2c3cc4c(cc3C(OC3OC5COC(C)OC5C(O)C3O)C3COC(=O)C23)OCO4)cc(OC)c1O (stereo unspecified) + Cc1ccccc1N=Nc1ccc(NC(=O)c2ccnn2C)c(C)c1
quantitative result: 93.6

Entry source: PubChem BioAssay AID1918991
